Biological target: T1, recombinant OSMR protein (Sino Biologicals, 11226-H08H), extracellular domain of OSMR (UniProt Q99650 28-740)
T1 construct: extracellular domain; also called OSMR antigen
T1 sequence (looked up): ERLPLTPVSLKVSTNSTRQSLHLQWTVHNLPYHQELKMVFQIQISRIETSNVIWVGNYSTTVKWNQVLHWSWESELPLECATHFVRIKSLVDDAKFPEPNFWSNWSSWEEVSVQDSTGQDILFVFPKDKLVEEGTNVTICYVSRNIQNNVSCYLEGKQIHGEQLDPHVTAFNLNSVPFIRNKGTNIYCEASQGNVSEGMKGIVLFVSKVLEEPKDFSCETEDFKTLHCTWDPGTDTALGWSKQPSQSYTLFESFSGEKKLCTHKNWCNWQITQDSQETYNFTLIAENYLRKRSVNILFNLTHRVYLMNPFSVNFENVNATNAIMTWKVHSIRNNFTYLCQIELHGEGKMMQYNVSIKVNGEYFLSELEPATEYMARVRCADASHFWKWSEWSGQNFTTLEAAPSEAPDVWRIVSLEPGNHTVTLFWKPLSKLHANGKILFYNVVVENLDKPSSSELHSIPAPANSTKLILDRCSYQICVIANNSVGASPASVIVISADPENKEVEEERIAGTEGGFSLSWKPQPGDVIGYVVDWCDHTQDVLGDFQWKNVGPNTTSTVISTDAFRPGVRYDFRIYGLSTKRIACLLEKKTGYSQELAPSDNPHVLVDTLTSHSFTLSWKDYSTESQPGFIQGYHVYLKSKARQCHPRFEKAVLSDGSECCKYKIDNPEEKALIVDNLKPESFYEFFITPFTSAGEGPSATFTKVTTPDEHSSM
Test: screening of full-length IgG1 clones on recombinant OSMR extracellular domain
parameter-measured: binding result

binder	parameter-measured	value-reported
B02 monoclonal antibody (antibody, V domains shown, also called B02 mAb) VH: QVELQESGSGLVKPSQTLSLTCAVSGGSISSGGYSWSWIRQPPGKGLEWIGYIYHSGSTYYNPSLKSRVTISVDRSKNQFSLKLSSVTAADTAVYYCARELGYCSSTSCPWGAFDIWGQGTLVSVSS VL: QAVVTQPPSVSAAPGQKVTISCSGSSSNIGNNYVSWYQQLPGTAPKLLIYDNNKRPSGIPDRFSGSKSGTSATLGITGLQTGDEADYYCGTWDSSLSAVVFGGGTQLTVL	binding result	binds
